Molecular target: c-Src SH2;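 note: peptide library displayed on the E. coli surface as eCPX fusions, selected cells deep-sequenced, score is each peptide's frequency after selection divided by its frequency in the input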
Assay: SH2 binding enrichment of the phosphorylated peptide, bacterial display (enrichment ratio); higher = better substrate or ligand; peptides without Tyr show the background
PARAMETER: SH2 binding enrichment

// worked examples, SH2 binding enrichment included
Would you kindly share the measured SH2 binding enrichment for DTKPVYQNLRQ [BOD1_Y82_A81V] ?
3.29

Requested read-out: SH2 binding enrichment. Entry: VRFMAYTDETF [F8_Y450]
0.498

Which SH2 binding enrichment value belongs to GLDGSYLLRDS [SH2D1A_Y29] ?
0.42

What value of measured SH2 binding enrichment is listed for TVMGLYQKSSL [MYH7_Y609_V606M] ?
0.377

Requested read-out: SH2 binding enrichment. Entry: LDPIQYSKHPP [SQSTM1_Y433_T430P]
0.451

So what does the record say about SH2 binding enrichment for YISLIYTNYEA [GSTP1_Y109] ?
1.75

1: LKKLEYLNLPL [LRRC6_Y70_A74P]
2: GNEEAYGRSHI [FAM171B_Y522]
3: SLDHPYEKPRK [INAVA_Y333]
4: LVIIKYLPEWT [PSEN1_Y240_F237I]
# rank by SH2 binding enrichment, ascending (min first) Put the labels in the order asked and list them.
2, 1, 4, 3
